# System: Primary T Cell (expanded CD3+ T cells)
# protocol.details: T cell enhancement of cytokines: IL2 measurement (HTRF) in stimulated expanded CD3+ T cells
# Type: cell-based, human
# study.conditions: Homo sapiens, T-cell, 24 h, plate-bound anti-CD3 and soluble anti-CD28, 24 h, IL2 by HTRF; read-out: IL-2 Primary T Cell EC50
attribute.measured: EC50 (nM)
Answers are plain numbers, in nM.

Fill in EC50 for each of the 2 compounds listed.
1. COC[C@@](C)(N)c1cnc(O[C@H]2C[C@@H](S(C)(=O)=O)C2)c2cnc(Nc3ccc4c(n3)[C@@H](C)C(C)(C)OC4=O)cc12
2. C[C@@H]1COC(=O)c2ccc(Nc3cc4c(C(C)(C)N)cnc(O[C@H]5C[C@@H](S(=O)(=O)C6CC6)C5)c4cn3)nc21 (single isomer, unassigned)

(A)
1: 34; 2: 17

Fill in EC50 for each of the 4 compounds listed.
1. CC[C@@](C)(N)c1cnc(O[C@H](C)C[C@@H](C)S(C)(=O)=O)c2cnc(Nc3ccc4c(n3)[C@@H](C)[C@@H](C)OC4=O)cc12 (single isomer, unassigned)
2. CC[C@@H](N)c1cnc(O[C@H]2C[C@@H](S(C)(=O)=O)C2)c2cnc(Nc3ccc4c(n3)[C@@H](C)C(C)(C)OC4=O)cc12 (single isomer, unassigned)
3. CC[C@@](C)(N)c1cnc(O[C@H](C)C[C@@H](C)S(=O)(=O)CC)c2cnc(Nc3ccc4c(n3)[C@@H](C)[C@H](C)OC4=O)cc12
4. C[C@@H]1c2nc(Nc3cc4c(C(C)(C)N)cnc(OC5CS(=O)(=O)C5)c4cn3)ccc2C(=O)OC1(C)C

(A)
[11, 69, 10, 39]

* * *

# Tested on: Primary T Cell (expanded CD3+ T cells)
# protocol.details: T cell enhancement of cytokines: IL2 measurement (HTRF) in stimulated expanded CD3+ T cells
# Type: cell-based, human
# study.conditions: Homo sapiens, T-cell, 24 h, plate-bound anti-CD3 and soluble anti-CD28, 24 h, IL2 by HTRF; read-out: IL-2 Primary T Cell EC50
Please go through the items and note down their EC50.

// below: answered compounds
>  <compound>
C[C@@H]1c2nc(Nc3cc4c(C(N)C5CC5)cnc(O[C@H]5C[C@@H](S(C)(=O)=O)C5)c4cn3)ccc2C(=O)OC1(C)C (single isomer, unassigned) [Compound 62]

>  <EC50>
76 nM

$$$$
>  <compound>
C[C@@H]1OC(=O)c2cc(Nc3cncc4c(OCCCS(C)(=O)=O)ncc(C(C)(C)N)c34)cnc2[C@H]1C [Compound 7]

>  <EC50>
11 nM

$$$$
>  <compound>
CC[C@@H](N)c1cnc(O[C@H]2C[C@@H](S(=O)(=O)CC)C2)c2cnc(Nc3ccc4c(n3)[C@@H](C)C(C)(C)OC4=O)cc12 (single isomer, unassigned) [Compound 74]

>  <EC50>
51 nM

$$$$
>  <compound>
CCC[C@@](C)(N)c1cnc(O[C@H](C)CCS(C)(=O)=O)c2cnc(Nc3ccc4c(n3)CC(C)(C)OC4=O)cc12 (single isomer, unassigned) [Compound 85]

>  <EC50>
85 nM

$$$$
>  <compound>
C[C@@H]1OC(=O)c2ccc(Nc3cc4c(C(C)(C)N)cnc(OC5CN(S(C)(=O)=O)C5)c4cn3)nc2[C@H]1C [Compound 15]

>  <EC50>
13 nM

$$$$
>  <compound>
C[C@@H]1c2nc(Nc3cc4c(C(C)(C)N)cnc(O[C@H]5C[C@H](CS(C)(=O)=O)C5)c4cn3)ccc2C(=O)OC1(C)C (single isomer, unassigned) [Compound 75]

>  <EC50>
28 nM

$$$$

Fill in EC50 for each of the 3 compounds listed.
1. CC[C@@](C)(N)c1cnc(O[C@H](C)CCS(=O)(=O)CC)c2cnc(Nc3ccc4c(n3)[C@@H](C)C(C)(C)OC4=O)cc12 (single isomer, unassigned) [Compound 133]
2. CC[C@@](C)(N)c1cnc(O[C@H](C)CCS(C)(=O)=O)c2cnc(Nc3ccc4c(n3)[C@@H](C)[C@@H](C)OC4=O)cc12 (single isomer, unassigned) [Compound 153]
3. C[C@@H]1c2nc(Nc3cc4c(C(C)(C)N)cnc(OCCC[S@](C)(=N)=O)c4cn3)ccc2C(=O)OC1(C)C (single isomer, unassigned) [Compound 168]

(A)
1: 23 nM; 2: 25 nM; 3: 35 nM

Fill in EC50 for each of the 7 compounds listed.
1. C[C@@H]1OC(=O)c2ccc(Nc3cc4c(C(C)(C)N)cnc(O[C@H]5C[C@@H](S(C)(=O)=O)C5)c4cn3)nc2[C@H]1C [Compound 13]
2. CCC[C@@H](N)c1cnc(O[C@H]2C[C@@H](S(=O)(=O)CC)C2)c2cnc(Nc3ccc4c(n3)[C@@H](C)C(C)(C)OC4=O)cc12 (single isomer, unassigned) [Compound 115]
3. C[C@H](C[C@@H](C)S(C)(=O)=O)Oc1ncc(C(C)(C)N)c2cc(Nc3ccc4c(n3)[C@@H](C)[C@H](C)OC4=O)ncc12 [Compound 51]
4. C[C@@H]1c2nc(Nc3cc4c(C(C)(C)N)cnc(O[C@H]5C[C@@H](S(C)(=O)=O)C5)c4cn3)ccc2C(=O)OC1(C)C [Compound 42]
5. CC[C@@](C)(N)c1cnc(O[C@H](C)C[C@@H](C)S(C)(=O)=O)c2cnc(Nc3ccc4c(n3)C3(CC3)C(C)(C)OC4=O)cc12 [Compound 136]
6. CC[C@@](C)(N)c1cnc(O[C@H](C)CCS(C)(=O)=O)c2cnc(Nc3ccc4c(n3)[C@H](C)COC4=O)cc12 (single isomer, unassigned) [Compound 16]
7. C[C@H](C[C@@H](C)S(C)(=O)=O)Oc1ncc(C(C)(C)N)c2cc(Nc3ccc4c(n3)C3(CC3)[C@@H](C)OC4=O)ncc12 (single isomer, unassigned) [Compound 65]

(A)
1. 15 nM
2. 59 nM
3. 25 nM
4. 9 nM
5. 10 nM
6. 44 nM
7. 11 nM

Fill in EC50 for each of the 6 compounds listed.
1. CC[C@@](C)(N)c1cnc(O[C@H]2C[C@@H](S(=O)(=O)CC)C2)c2cnc(Nc3ccc4c(n3)[C@@H](C)C(C)(C)OC4=O)cc12 [Compound 117]
2. C[C@@H]1c2nc(Nc3cc4c(C(C)(C)N)cnc(O[C@H]5C[C@@H](CS(C)(=O)=O)C5)c4cn3)ccc2C(=O)OC1(C)C (single isomer, unassigned) [Compound 76]
3. C[C@@H]1COC(=O)c2ccc(Nc3cc4c(C(C)(C)N)cnc(O[C@H]5C[C@@H](S(C)(=O)=O)C5)c4cn3)nc21 (single isomer, unassigned) [Compound 6]
4. C[C@H](CCS(C)(=O)=O)Oc1ncc(C(C)(C)N)c2cc(Nc3ccc4c(n3)C3(CC3)C(C)(C)OC4=O)ncc12 [Compound 67]
5. CCS(=O)(=O)[C@H]1C[C@@H](Oc2ncc([C@](C)(N)COC)c3cc(Nc4ccc5c(n4)[C@@H](C)C(C)(C)OC5=O)ncc23)C1 [Compound 141]
6. C[C@H](CCS(C)(=O)=O)Oc1ncc(C(C)(C)N)c2cc(Nc3ccc4c(n3)[C@@H](C)C(C)(C)OC4=O)ncc12 (single isomer, unassigned) [Compound 55]

(A)
1. 6 nM
2. 25 nM
3. 7 nM
4. 40 nM
5. 15 nM
6. 34 nM

* * *

# system.name: MAP4K1 (HPK1) (Homo sapiens)
# Sequence (Q92918 whole entry): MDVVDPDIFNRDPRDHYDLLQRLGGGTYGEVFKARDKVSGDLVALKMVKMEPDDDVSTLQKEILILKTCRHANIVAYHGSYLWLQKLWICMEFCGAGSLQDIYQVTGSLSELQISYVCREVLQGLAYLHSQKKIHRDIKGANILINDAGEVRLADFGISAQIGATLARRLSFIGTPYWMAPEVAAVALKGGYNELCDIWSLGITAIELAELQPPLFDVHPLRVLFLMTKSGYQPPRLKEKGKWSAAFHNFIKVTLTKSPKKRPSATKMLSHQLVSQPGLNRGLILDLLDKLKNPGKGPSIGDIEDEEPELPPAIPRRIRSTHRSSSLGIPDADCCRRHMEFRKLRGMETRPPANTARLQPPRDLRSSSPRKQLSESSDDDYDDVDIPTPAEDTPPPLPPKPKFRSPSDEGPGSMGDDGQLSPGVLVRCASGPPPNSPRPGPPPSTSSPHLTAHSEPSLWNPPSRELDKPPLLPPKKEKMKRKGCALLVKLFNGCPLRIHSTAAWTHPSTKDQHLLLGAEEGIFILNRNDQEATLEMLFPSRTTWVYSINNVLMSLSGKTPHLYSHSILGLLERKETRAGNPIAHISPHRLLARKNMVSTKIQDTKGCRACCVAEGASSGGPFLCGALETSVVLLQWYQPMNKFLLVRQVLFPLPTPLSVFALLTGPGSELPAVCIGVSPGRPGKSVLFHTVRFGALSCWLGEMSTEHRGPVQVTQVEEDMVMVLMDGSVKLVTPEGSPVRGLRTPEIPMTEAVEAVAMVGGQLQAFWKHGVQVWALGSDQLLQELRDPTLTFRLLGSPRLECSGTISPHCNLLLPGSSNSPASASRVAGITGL
attribute.measured: IC50 (pM)
One number for each entry, in pM.

// below: answered molecules
>  <molecule>
C[C@H](C[C@H]1CCCS1(=O)=O)Oc1ncc(C(C)(C)N)c2cc(Nc3ccc4c(n3)[C@@H](C)C(C)(C)OC4=O)ncc12 (single isomer, unassigned) [Compound 158]

>  <data.value>
860

$$$$
>  <molecule>
CCS(=O)(=O)[C@H]1C[C@@H](Oc2ncc([C@](C)(N)COC)c3cc(Nc4ccc5c(n4)[C@@H](C)C(C)(C)OC5=O)ncc23)C1

>  <data.value>
150

$$$$
>  <molecule>
C[C@@H]1OC(=O)c2ccc(Nc3cc4c([C@](C)(N)C5CC5)cnc(O[C@H]5C[C@@H](S(C)(=O)=O)C5)c4cn3)nc2[C@H]1C

>  <data.value>
190

$$$$

Fill in IC50 for each of the 3 molecules listed.
1. COC[C@@](C)(N)c1cnc(O[C@H]2C[C@H](CS(C)(=O)=O)C2)c2cnc(Nc3ccc4c(n3)[C@@H](C)C(C)(C)OC4=O)cc12
2. CCS(=O)(=O)[C@H]1C[C@@H](Oc2ncc(C(C)(C)N)c3cc(Nc4ccc5c(n4)[C@@H](C)C(C)(C)OC5=O)ncc23)C1
3. C[C@@H]1c2nc(Nc3cc4c(C(C)(C)N)cnc(OC[C@H]5CCS(=O)(=O)C5)c4cn3)ccc2C(=O)OC1(C)C (single isomer, unassigned)

(A)
360
80
440

* * *

# Tested on: Primary T Cell (expanded CD3+ T cells)
# protocol.details: T cell enhancement of cytokines: IL2 measurement (HTRF) in stimulated expanded CD3+ T cells
# Format: cell-based, human
# study.conditions: Homo sapiens, T-cell, 24 h, plate-bound anti-CD3 and soluble anti-CD28, 24 h, IL2 by HTRF; read-out: IL-2 Primary T Cell EC50
attribute.measured: EC50 (nM)
Give bare numbers, in nM.

>  <compound>
CCS(=O)(=O)[C@H](C)C[C@@H](C)Oc1ncc([C@H](N)C2CC2)c2cc(Nc3ccc4c(n3)[C@@H](C)C(C)(C)OC4=O)ncc12 (single isomer, unassigned)

>  <attribute.measured>
EC50

>  <data.value>
38

$$$$
>  <compound>
CC[C@@](C)(N)c1cnc(O[C@H](C)C[C@@H](C)S(=O)(=O)CC)c2cnc(Nc3ccc4c(n3)[C@@H](C)C(C)(C)OC4=O)cc12

>  <attribute.measured>
EC50

>  <data.value>
16

$$$$
>  <compound>
CC[C@@](C)(N)c1cnc(O[C@H](C)CCS(C)(=O)=O)c2cnc(Nc3ccc4c(n3)[C@@H](C)C(C)(C)OC4=O)cc12

>  <attribute.measured>
EC50

>  <data.value>
26

$$$$
>  <compound>
CC[C@@](C)(N)c1cnc(O[C@H](C)C[C@@H](C)S(C)(=O)=O)c2cnc(Nc3ccc4c(n3)C(C)(C)[C@H](C)OC4=O)cc12 (single isomer, unassigned)

>  <attribute.measured>
EC50

>  <data.value>
15

$$$$
>  <compound>
CCS(=O)(=O)[C@H](C)C[C@@H](C)Oc1ncc(C(C)(C)N)c2cc(Nc3ccc4c(n3)[C@@H](C)C(C)(C)OC4=O)ncc12

>  <attribute.measured>
EC50

>  <data.value>
36

$$$$

Fill in EC50 for each of the 6 compounds listed.
1. C[C@@H]1OC(=O)c2ccc(Nc3cc4c(C(C)(C)N)cnc(O[C@H]5C[C@@H](S(=O)(=O)N(C)C)C5)c4cn3)nc2[C@H]1C
2. CCC[C@@H](N)c1cnc(O[C@H]2C[C@@H](S(C)(=O)=O)C2)c2cnc(Nc3ccc4c(n3)[C@@H](C)C(C)(C)OC4=O)cc12 (single isomer, unassigned)
3. CC[C@@](C)(N)c1cnc(O[C@H](C)C[C@@H](C)[S@](C)(=N)=O)c2cnc(Nc3ccc4c(n3)C3(CC3)[C@@H](C)OC4=O)cc12 (single isomer, unassigned)
4. C[C@@H]1c2nc(Nc3cc4c(C(C)(C)N)ccc(O[C@H]5C[C@@H](S(C)(=O)=O)C5)c4cn3)ccc2C(=O)OC1(C)C
5. CC[C@@](C)(N)c1cnc(O[C@H](C)C[C@@H](C)S(C)(=O)=O)c2cnc(Nc3ccc4c(n3)[C@@H](C)[C@H](C)OC4=O)cc12
6. C[C@@H]1OC(=O)c2ccc(Nc3cc4c(C(C)(C)N)cnc(O[C@@H](C)CCS(C)(=O)=O)c4cn3)nc2[C@H]1C (single isomer, unassigned)

(A)
1: 18; 2: 94; 3: 85; 4: 15; 5: 3; 6: 43
